Listed below: melting point values for each entry.

- Cn1cc(C(=O)NCc2ccc(Cl)cc2)c(=O)c2cc(CN3CCOCC3)cc(C#Cc3ccncc3)c21: 200 to 202 °C

Answer with the recorded melting point of Cn1cc(C(=O)NCc2ccc(Cl)cc2)c(=O)c2cc(CN3CCOCC3)cc(C#CCCCO)c21 only.
179 to 182 °C

Answer with the recorded melting point of Cn1cc(C(=O)NCc2ccc(Cl)cc2)c(=O)c2cc(CC3CCOCC3)cc(C#CCCO)c21 only.
186 to 188 °C

Answer with the recorded melting point of Cn1cc(C(=O)NCc2ccc(Cl)cc2)c(=O)c2cc(CN3CCOCC3)cc(C#CCn3ccnc3)c21 only.
178 to 180 °C

Answer with the recorded melting point of Cn1cc(C(=O)NCc2ccc(Cl)cc2)c(=O)c2cc(CN3CCOCC3)cc(C#Cc3cccnc3)c21 only.
195 to 197 °C

Answer with the recorded melting point of Cn1cc(C(=O)NCc2ccc(Cl)cc2)c(=O)c2cc(CN3CCOCC3)cc(C#CCn3cnc(Cl)c3Cl)c21 only.
178 to 181 °C

Answer with the recorded melting point of CN(C)CC#Cc1cc(CC2CCOCC2)cc2c(=O)c(C(=O)NCc3ccc(Cl)cc3)cn(C)c12 only.
157 to 159 °C

Answer with the recorded melting point of Cn1cc(C(=O)NCc2ccc(Cl)cc2)c(=O)c2cc(CN3CCOCC3)cc(C#Cc3ccccn3)c21 only.
234 to 236 °C

* * *

- SUBJECT OF TEST: VZV polymerase (Varicella-zoster virus, UniProt P09252)
- Sequence (P09252 whole entry): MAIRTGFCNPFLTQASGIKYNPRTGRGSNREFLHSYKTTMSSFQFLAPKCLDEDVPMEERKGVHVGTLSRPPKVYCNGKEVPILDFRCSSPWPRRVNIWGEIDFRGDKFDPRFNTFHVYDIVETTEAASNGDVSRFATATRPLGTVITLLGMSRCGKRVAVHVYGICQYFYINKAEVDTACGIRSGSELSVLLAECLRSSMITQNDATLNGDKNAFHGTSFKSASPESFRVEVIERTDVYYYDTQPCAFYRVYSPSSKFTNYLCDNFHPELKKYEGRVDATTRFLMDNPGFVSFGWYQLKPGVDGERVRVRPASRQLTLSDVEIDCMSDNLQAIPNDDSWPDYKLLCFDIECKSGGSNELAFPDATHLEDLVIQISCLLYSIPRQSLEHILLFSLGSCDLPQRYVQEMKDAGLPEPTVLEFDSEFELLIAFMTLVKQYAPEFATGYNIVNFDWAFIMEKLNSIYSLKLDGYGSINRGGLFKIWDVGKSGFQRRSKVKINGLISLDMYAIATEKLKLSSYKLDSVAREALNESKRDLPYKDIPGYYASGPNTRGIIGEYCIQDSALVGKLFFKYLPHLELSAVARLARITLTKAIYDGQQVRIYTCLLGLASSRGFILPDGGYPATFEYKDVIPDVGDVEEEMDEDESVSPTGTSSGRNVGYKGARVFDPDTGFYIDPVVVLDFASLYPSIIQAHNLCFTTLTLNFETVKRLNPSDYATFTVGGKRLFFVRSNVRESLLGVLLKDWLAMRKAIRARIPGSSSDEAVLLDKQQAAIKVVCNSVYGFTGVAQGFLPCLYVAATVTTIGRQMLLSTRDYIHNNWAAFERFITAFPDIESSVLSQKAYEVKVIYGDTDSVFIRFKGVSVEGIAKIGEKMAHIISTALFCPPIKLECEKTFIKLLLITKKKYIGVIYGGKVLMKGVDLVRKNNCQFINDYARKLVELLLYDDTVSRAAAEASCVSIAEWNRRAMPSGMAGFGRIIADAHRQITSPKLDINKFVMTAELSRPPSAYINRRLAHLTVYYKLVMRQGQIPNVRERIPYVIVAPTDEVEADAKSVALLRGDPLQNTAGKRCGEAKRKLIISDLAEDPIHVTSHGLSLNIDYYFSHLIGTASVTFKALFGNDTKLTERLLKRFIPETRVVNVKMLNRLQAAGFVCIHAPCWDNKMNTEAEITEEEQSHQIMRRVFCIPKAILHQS
- EXPERIMENTAL DETAILS: Polymerase scintillation proximity assay (SPA), VZV
- Format: biochemical
METRIC NAME: IC50 (µM)

Example compounds with recorded IC50:
* Cn1cc(C(=O)NCc2ccc(Cl)cc2)c(=O)c2cc(CN3CCOCC3)cc(C#CCn3ccnc3)c21 [Example 23] | 0.1
* Cn1cc(C(=O)NCc2ccc(Cl)cc2)c(=O)c2cc(CC3CCOCC3)cc(C#CCO)c21 [Example 1] | 0.18

A: Cn1cc(C(=O)NCc2ccc(Cl)cc2)c(=O)c2cc(CN3CCOCC3)cc(C#CCCCO)c21 [Example 10]
B: Cn1cc(C(=O)NCc2ccc(Cl)cc2)c(=O)c2cc(CN3CCOCC3)cc(C#CCn3cnc(Cl)c3Cl)c21 [Example 13]
Would you kindly point out which of A and B has the smaller IC50 figure? State the label of the item chosen.
A

* * *

- SUBJECT OF TEST: VZV polymerase (Varicella-zoster virus, UniProt P09252)
- EXPERIMENTAL DETAILS: Polymerase scintillation proximity assay (SPA), VZV
- Format: biochemical
METRIC NAME: IC50 (µM)

I: Cn1cc(C(=O)NCc2ccc(Cl)cc2)c(=O)c2cc(CN3CCOCC3)cc(C#CCN3CCS(=O)(=O)CC3)c21
II: Cn1cc(C(=O)NCc2ccc(Cl)cc2)c(=O)c2cc(CN3CCOCC3)cc(C#Cc3ccncc3)c21
Would you kindly point out which of I and II has the smaller IC50 figure? State the label of the item chosen.
II

* * *

- SUBJECT OF TEST: HCMV polymerase (Human cytomegalovirus, UniProt P08546)
- Construct: made in house; host or cells: recombinant baculovirus-infected SF-9 cells
- Sequence (P08546 whole entry): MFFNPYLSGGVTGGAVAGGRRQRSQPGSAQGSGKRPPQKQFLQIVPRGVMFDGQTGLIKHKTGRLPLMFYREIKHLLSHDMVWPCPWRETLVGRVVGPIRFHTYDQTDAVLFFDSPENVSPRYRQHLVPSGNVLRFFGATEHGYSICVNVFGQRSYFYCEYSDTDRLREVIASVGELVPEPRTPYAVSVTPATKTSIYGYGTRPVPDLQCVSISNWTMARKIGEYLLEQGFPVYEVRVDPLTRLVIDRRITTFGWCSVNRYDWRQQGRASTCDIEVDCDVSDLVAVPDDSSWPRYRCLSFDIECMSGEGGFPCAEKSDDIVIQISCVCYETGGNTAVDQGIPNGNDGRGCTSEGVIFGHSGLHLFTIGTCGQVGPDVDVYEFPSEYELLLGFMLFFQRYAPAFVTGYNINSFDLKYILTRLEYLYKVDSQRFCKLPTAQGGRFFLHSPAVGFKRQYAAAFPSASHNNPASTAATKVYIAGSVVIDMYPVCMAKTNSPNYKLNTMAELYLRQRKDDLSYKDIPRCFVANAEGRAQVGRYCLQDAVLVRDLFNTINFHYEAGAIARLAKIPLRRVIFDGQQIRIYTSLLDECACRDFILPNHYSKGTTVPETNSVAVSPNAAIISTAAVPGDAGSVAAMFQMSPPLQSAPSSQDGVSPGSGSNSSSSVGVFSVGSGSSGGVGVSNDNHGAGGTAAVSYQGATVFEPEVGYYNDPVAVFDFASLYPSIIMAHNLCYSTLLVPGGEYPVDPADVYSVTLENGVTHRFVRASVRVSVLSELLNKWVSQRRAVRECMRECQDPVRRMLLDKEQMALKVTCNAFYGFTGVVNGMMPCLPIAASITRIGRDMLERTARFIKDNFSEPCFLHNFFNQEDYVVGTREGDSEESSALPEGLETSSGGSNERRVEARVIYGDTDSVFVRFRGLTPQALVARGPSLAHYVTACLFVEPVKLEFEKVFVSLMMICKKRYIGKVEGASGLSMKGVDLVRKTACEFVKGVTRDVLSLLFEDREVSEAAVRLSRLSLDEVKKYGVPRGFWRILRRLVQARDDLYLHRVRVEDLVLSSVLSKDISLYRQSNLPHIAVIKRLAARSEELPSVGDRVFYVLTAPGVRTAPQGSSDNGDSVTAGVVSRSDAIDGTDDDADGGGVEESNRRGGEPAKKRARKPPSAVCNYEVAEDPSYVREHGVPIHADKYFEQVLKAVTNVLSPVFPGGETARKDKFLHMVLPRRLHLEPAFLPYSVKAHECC
- EXPERIMENTAL DETAILS: HCMV polymerase scintillation proximity assay (SPA)
- Type: biochemical
- SETUP CONDITIONS: CMV polymerase
METRIC NAME: IC50 (µM)

* CN(C)CC#Cc1cc(CC2CCOCC2)cc2c(=O)c(C(=O)NCc3ccc(Cl)cc3)cn(C)c12 | 0.87
* Cn1cc(C(=O)NCc2ccc(Cl)cc2)c(=O)c2cc(CC3CCOCC3)cc(C#CCCO)c21 | 0.32
* Cn1cc(C(=O)NCc2ccc(Cl)cc2)c(=O)c2cc(CN3CCOCC3)cc(C#CCN3CCCCC3CCO)c21 (stereo not drawn) | 0.71

A: C[C@H](O)C#Cc1cc(CN2CCOCC2)cc2c(=O)c(C(=O)NCc3ccc(Cl)cc3)cn(C)c12
B: Cn1cc(C(=O)NCc2ccc(Cl)cc2)c(=O)c2cc(CN3CCOCC3)cc(C#CCn3ccnc3)c21
Determine, for A and B , which has the greater value of IC50. State the label of the item chosen.
A
(A: 0.76 µM, B: 0.33 µM)

a: Cn1cc(C(=O)NCc2ccc(Cl)cc2)c(=O)c2cc(CN3CCOCC3)cc(C#Cc3cccnc3)c21
b: Cn1cc(C(=O)NCc2ccc(Cl)cc2)c(=O)c2cc(CN3CCOCC3)cc(C#CCCO)c21
Would you kindly point out which of a and b has the smaller IC50 figure? State the label of the item chosen.
a
(a: 0.47 µM, b: 0.8 µM)

1: Cn1cc(C(=O)NCc2ccc(Cl)cc2)c(=O)c2cc(CN3CCOCC3)cc(C#CCN3CCC[C@H]3CO)c21
2: Cn1cc(C(=O)NCc2ccc(Cl)cc2)c(=O)c2cc(CN3CCOCC3)cc(C#CCC[C@@H]3COC(=O)N3)c21
3: Cn1cc(C(=O)NCc2ccc(Cl)cc2)c(=O)c2cc(CC3CCOCC3)cc(C#CCO)c21
4: CN(C)CC#Cc1cc(CN2CCOCC2)cc2c(=O)c(C(=O)NCc3ccc(Cl)cc3)cn(C)c12
Arrange these compounds by their IC50, starting with the largest number. Return the labels ranked in the requested order, please.
4, 1, 2, 3

* * *

Listed below: melting point values for each entry.

Example molecules with recorded melting point:
• CN(C)CC#Cc1cc(CN2CCOCC2)cc2c(=O)c(C(=O)NCc3ccc(Cl)cc3)cn(C)c12 [Example 5] = 154 to 157 °C
• C[C@H](O)C#Cc1cc(CN2CCOCC2)cc2c(=O)c(C(=O)NCc3ccc(Cl)cc3)cn(C)c12 [Example 7] = 158 to 161 °C
• Cn1cc(C(=O)NCc2ccc(Cl)cc2)c(=O)c2cc(CN3CCOCC3)cc(C#CCN3CCS(=O)(=O)CC3)c21 [Example 11] = 220 to 222 °C
• CN(CC#Cc1cc(CN2CCOCC2)cc2c(=O)c(C(=O)NCc3ccc(Cl)cc3)cn(C)c12)CCO [Example 22] = 148 to 149 °C
• Cn1cc(C(=O)NCc2ccc(Cl)cc2)c(=O)c2cc(CN3CCOCC3)cc(C#CCN3CCC(O)C3)c21 (stereo not drawn) [Example 20] = 144 to 146 °C
• C[C@@H](O)C#Cc1cc(CN2CCOCC2)cc2c(=O)c(C(=O)NCc3ccc(Cl)cc3)cn(C)c12 [Example 8] = 147 to 150 °C

Answer with the recorded melting point of Cn1cc(C(=O)NCc2ccc(Cl)cc2)c(=O)c2cc(CN3CCOCC3)cc(C#CCO)c21 [Example 4] only.
180 to 183 °C

Answer with the recorded melting point of Cn1cc(C(=O)NCc2ccc(Cl)cc2)c(=O)c2cc(CN3CCOCC3)cc(C#CCN3CCC(O)CC3)c21 [Example 19] only.
180 to 183 °C

Answer with the recorded melting point of CC(O)CC#Cc1cc(CN2CCOCC2)cc2c(=O)c(C(=O)NCc3ccc(Cl)cc3)cn(C)c12 (stereo not drawn) [Example 18] only.
178 to 180 °C

Answer with the recorded melting point of Cn1cc(C(=O)NCc2ccc(Cl)cc2)c(=O)c2cc(CN3CCOCC3)cc(C#CCC[C@@H]3COC(=O)N3)c21 [Example 9] only.
171 to 173 °C

* * *

- SUBJECT OF TEST: HSV polymerase (Human herpesvirus 1, UniProt P04293)
- Sequence (P04293 whole entry): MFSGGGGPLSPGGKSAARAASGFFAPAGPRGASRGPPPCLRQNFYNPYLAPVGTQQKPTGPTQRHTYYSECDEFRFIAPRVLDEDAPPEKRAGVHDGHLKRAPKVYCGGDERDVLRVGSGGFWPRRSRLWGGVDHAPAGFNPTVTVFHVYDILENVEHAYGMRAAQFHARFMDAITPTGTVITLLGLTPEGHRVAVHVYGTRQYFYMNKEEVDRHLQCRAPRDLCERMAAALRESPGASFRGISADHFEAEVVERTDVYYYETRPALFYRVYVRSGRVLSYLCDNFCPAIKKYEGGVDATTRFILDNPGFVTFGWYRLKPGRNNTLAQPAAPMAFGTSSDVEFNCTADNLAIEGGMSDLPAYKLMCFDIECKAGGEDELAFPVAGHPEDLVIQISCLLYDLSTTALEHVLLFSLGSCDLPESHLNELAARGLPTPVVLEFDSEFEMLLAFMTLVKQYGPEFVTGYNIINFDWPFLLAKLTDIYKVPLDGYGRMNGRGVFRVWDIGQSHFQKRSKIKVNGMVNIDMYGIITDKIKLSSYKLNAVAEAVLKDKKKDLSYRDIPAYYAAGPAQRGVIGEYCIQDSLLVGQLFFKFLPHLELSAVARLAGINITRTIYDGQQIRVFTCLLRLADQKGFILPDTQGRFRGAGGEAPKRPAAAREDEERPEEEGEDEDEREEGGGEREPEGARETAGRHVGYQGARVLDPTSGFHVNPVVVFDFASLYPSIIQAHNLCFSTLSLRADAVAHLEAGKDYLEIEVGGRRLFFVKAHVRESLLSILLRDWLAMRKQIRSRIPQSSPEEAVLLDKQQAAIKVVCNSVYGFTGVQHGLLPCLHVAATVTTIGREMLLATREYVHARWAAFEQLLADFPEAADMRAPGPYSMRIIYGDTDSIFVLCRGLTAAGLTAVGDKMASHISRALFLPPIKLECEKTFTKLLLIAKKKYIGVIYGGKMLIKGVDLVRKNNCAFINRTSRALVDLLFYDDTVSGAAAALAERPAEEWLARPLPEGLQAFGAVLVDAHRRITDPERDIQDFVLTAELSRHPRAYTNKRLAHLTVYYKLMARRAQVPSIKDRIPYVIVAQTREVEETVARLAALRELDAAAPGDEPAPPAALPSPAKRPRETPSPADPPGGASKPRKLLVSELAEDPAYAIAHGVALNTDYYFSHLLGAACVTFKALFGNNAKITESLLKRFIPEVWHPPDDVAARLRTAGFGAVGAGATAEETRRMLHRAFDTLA
- EXPERIMENTAL DETAILS: Polymerase scintillation proximity assay (SPA), HSV
- Type: biochemical
METRIC NAME: IC50 (µM)

* Cn1cc(C(=O)NCc2ccc(Cl)cc2)c(=O)c2cc(CN3CCOCC3)cc(C#Cc3ccncc3)c21 | 0.21
* Cn1cc(C(=O)NCc2ccc(Cl)cc2)c(=O)c2cc(CC3CCOCC3)cc(C#CCO)c21 | 0.25
* Cn1cc(C(=O)NCc2ccc(Cl)cc2)c(=O)c2cc(CN3CCOCC3)cc(C#CCn3cnc(Cl)c3Cl)c21 | 0.49
* CCCCN(CC#Cc1cc(CN2CCOCC2)cc2c(=O)c(C(=O)NCc3ccc(Cl)cc3)cn(C)c12)CCO | 0.55
* Cn1cc(C(=O)NCc2ccc(Cl)cc2)c(=O)c2cc(CN3CCOCC3)cc(C#CCN3CCS(=O)(=O)CC3)c21 | 0.28
* Cn1cc(C(=O)NCc2ccc(Cl)cc2)c(=O)c2cc(CN3CCOCC3)cc(C#CCn3ccnc3)c21 | 0.22
* Cn1cc(C(=O)NCc2ccc(Cl)cc2)c(=O)c2cc(CN3CCOCC3)cc(C#CCCCO)c21 | 0.41
* Cn1cc(C(=O)NCc2ccc(Cl)cc2)c(=O)c2cc(CN3CCOCC3)cc(C#Cc3cccnc3)c21 | 0.28

I: Cn1cc(C(=O)NCc2ccc(Cl)cc2)c(=O)c2cc(CN3CCOCC3)cc(C#CCCO)c21
II: C[C@H](O)C#Cc1cc(CN2CCOCC2)cc2c(=O)c(C(=O)NCc3ccc(Cl)cc3)cn(C)c12
III: Cn1cc(C(=O)NCc2ccc(Cl)cc2)c(=O)c2cc(CN3CCOCC3)cc(C#Cc3ccccn3)c21
Let's sort these by IC50, smallest first. Go ahead? Return the labels ranked in the requested order, please.
III, II, I
